- measured_target: T1, CRF2R; also: reference of the scale not given here
- T1 sequence (Q13324 whole entry, species assumed, looked up): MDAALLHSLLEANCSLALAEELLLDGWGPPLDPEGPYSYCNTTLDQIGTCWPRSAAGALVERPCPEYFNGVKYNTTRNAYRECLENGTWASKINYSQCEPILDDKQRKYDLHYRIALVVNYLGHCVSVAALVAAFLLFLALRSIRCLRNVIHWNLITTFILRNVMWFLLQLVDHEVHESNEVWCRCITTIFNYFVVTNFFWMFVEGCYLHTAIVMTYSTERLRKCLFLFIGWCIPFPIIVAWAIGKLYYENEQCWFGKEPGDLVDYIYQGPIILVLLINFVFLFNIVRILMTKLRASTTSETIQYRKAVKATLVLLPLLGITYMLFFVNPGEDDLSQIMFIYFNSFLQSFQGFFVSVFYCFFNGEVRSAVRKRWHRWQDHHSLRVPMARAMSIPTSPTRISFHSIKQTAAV
- assay_name: cell-based or functional assay
Ends that are not written are not given here.
endpoint_label: CRF2R Emax % (%)
The reply should contain only the number, in %.

binder="ZGPPISIDLPFQLLRKMIEIEKQEKEKQQAANNRLLLATI (not fully specified; C-terminal amide) [SEQ ID NO 250]" endpoint_label="CRF2R Emax %" experimental_result=100
binder="ZGPPISIDLPLQLLEKMIEIEKQEKEKQQATTNARLLDRV (C-terminal amide) [SEQ ID NO 247]" endpoint_label="CRF2R Emax %" experimental_result=100
binder="ZGPPISIDLPLALLRKMIEIEKQEKEKQQAANNRLLLDTI (C-terminal amide) [SEQ ID NO 308]" endpoint_label="CRF2R Emax %" experimental_result=72.8
binder="ZGPPISIDVPFQLLRKVIEIEKQEKEKQQAANNARLLARI (C-terminal amide) [SEQ ID NO 383]" endpoint_label="CRF2R Emax %" experimental_result=96
binder="ZGPPISIDLPIYLLRKMIEIEKQEKEKQQAANNALLLDTI (C-terminal amide) [SEQ ID NO 236]" endpoint_label="CRF2R Emax %" experimental_result=97
binder="ZGPPISIDLPFHLLRKMIEIEKQEKEKQQAANNALLLATI (C-terminal amide) [SEQ ID NO 229]" endpoint_label="CRF2R Emax %" experimental_result=100

## Task Assign CRF2R Emax % to the following record: ZGPPISIDLPFQLLRKLIEIEKQEKEKQQAANNALLLATI (C-terminal amide) [SEQ ID NO 357]
## Result 100

## Task Assign CRF2R Emax % to the following record: IVLSLDVPIGLLQKVIEIEKQEKEKQQATTNARILARV-NH2 [SEQ ID NO 300]
## Result 100

## Task Assign CRF2R Emax % to the following record: ZGPPISIDLPLELLRKMIEIEKQEKEKQQAANNALLLATI (C-terminal amide) [SEQ ID NO 234]
## Result 100

## Task Assign CRF2R Emax % to the following record: ZGPPISIDLPYHLLRKMIEIEKQEKEKQQAANNALLLDTI (C-terminal amide) [SEQ ID NO 314]
## Result 99.8

## Task Assign CRF2R Emax % to the following record: ZGPPISIDLPLHLLRKMIEIEKQEKEKQQATTNARLLDTV (C-terminal amide) [SEQ ID NO 238]
## Result 100

## Task Assign CRF2R Emax % to the following record: DNPSLSIDLPLLLLRTLLELARTQSQRERAEQNARIFARV-NH2 [SEQ ID NO 340]
## Result 100
